- test system: CypF (Homo sapiens (Human), UniProt P30405)
- Sequence (P30405 30-207): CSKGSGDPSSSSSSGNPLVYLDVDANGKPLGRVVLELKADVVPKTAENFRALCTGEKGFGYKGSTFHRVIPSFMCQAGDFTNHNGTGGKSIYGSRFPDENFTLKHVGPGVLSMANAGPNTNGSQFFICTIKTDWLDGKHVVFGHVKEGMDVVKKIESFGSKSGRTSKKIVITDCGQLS
- protocol description: Inhibitor binding to cyclophilin proteins by SPR, CypF
- details: 1:1 binding model
Starred links: 1 amine or outer side, 2 acyl side, 3 side chain; linkers in the order of their positions; H or OH if unused. Non-standard residues stand in square brackets, D forms with d. Residues, ends and D or L forms follow the SMILES beside them. X71 = COC1CN(CC[C@@H](C)[C@@H](C(=O)[*:2])N(C)[*:1])C1; X4 = C[C@H](CS(C)(=O)=O)[C@@H](C(=O)[*:2])N(C)[*:1]; MeBmt = C/C=C/C[C@@H](C)[C@@H](O)[C@H](NC)C(=O)O; NMeL = CN[C@@H](CC(C)C)C(=O)O; NMeV = CN[C@H](C(=O)O)C(C)C; dNMeA = CN[C@H](C)C(=O)O; Abu = CC[C@H](N)C(=O)O
measurement type: CypF Kd (pM)

[[record]]
molecule = "C/C=C/C[C@@H](C)[C@@H](O)[C@H]1C(=O)N[C@@H](CC)C(=O)N(C)[C@H](C)C(=O)N(C)[C@@H]([C@H](C)CCN2CC(OC)C2)C(=O)N[C@@H](C(C)C)C(=O)N(C)[C@@H](CC(C)C)C(=O)N[C@@H](C)C(=O)N[C@H](C)C(=O)N(C)[C@@H](CC(C)C)C(=O)N(C)[C@@H](CC(C)C)C(=O)N(C)[C@@H](C(C)C)C(=O)N1C [Compound 2.18.5] (cyclo(A[dA][NMeL][NMeL][NMeV][MeBmt][Abu][dNMeA][X71]V[NMeL]))"
measurement = 500

[[record]]
molecule = "C/C=C/C[C@@H](C)[C@@H](O)[C@H]1C(=O)N[C@@H](CC)C(=O)N(C)[C@H](C)C(=O)N(C)[C@@H]([C@H](C)CS(C)(=O)=O)C(=O)N[C@@H](C(C)C)C(=O)N(C)[C@@H](CC(C)C)C(=O)N[C@@H](C)C(=O)N[C@H](C)C(=O)N(C)[C@@H](CC(C)C)C(=O)N(C)[C@@H](CC(C)C)C(=O)N(C)[C@@H](C(C)C)C(=O)N1C [Compound 2.4] (cyclo(A[dA][NMeL][NMeL][NMeV][MeBmt][Abu][dNMeA][X4]V[NMeL]))"
measurement = 600


###

- test system: UniProt:P62937
- Sequence (P62937 whole entry): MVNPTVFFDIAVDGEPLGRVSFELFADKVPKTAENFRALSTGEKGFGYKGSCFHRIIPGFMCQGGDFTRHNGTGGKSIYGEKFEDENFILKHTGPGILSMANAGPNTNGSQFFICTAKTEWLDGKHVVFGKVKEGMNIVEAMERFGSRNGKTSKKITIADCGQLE
- protocol description: Inhibitor binding to cyclophilin proteins by SPR, CypA;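 also: Single-cycle kinetics on a Biacore T200, compound injected at several concentrations for 1 min each at 50 µL/min, then 10 min dissociation, in HEPES pH 7.4 buffer with 3% DMSO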
- Parameters: unit not given here
- details: 1:1 binding model
Starred links: 1 amine or outer side, 2 acyl side, 3 side chain; linkers in the order of their positions; H or OH if unused. Non-standard residues stand in square brackets, D forms with d. Residues, ends and D or L forms follow the SMILES beside them. X26 = C[C@H](CN1CCn2c(nnc2C(F)(F)F)C1)[C@@H](C(=O)[*:2])N(C)[*:1]; X60 = C[C@H](CCCN1CC2CCC(C1)N2C)[C@@H](C(=O)[*:2])N(C)[*:1]; X22 = C[C@H](CN1CCN(C2CCC2)CC1)[C@@H](C(=O)[*:2])N(C)[*:1]; X35 = C[C@H](CN1CCC2(CC1)OCCO2)[C@@H](C(=O)[*:2])N(C)[*:1]; X34 = C[C@H](COC(=O)N1CCOCC1)[C@@H](C(=O)[*:2])N(C)[*:1]; NMe(dihydroBmt) = CCCC[C@@H](C)[C@@H](O)[C@H](NC)C(=O)O; X17 = C[C@H](COCC(C)(C)O)[C@@H](C(=O)[*:2])N(C)[*:1]; X43 = COCCN(C)C[C@@H](C)[C@@H](C(=O)[*:2])N(C)[*:1]; X65 = C[C@H](CCN1CCCCC1)[C@@H](C(=O)[*:2])N(C)[*:1]; MeBmt = C/C=C/C[C@@H](C)[C@@H](O)[C@H](NC)C(=O)O; NMeL = CN[C@@H](CC(C)C)C(=O)O; NMeV = CN[C@H](C(=O)O)C(C)C; dNMeA = CN[C@H](C)C(=O)O; Abu = CC[C@H](N)C(=O)O
measurement type: CypA Kd

[[record]]
compound = "C/C=C/C[C@@H](C)[C@@H](O)[C@H]1C(=O)N[C@@H](CC)C(=O)N(C)[C@H](C)C(=O)N(C)[C@@H]([C@H](C)CCN2CCCCC2)C(=O)N[C@@H](C(C)C)C(=O)N(C)[C@@H](CC(C)C)C(=O)N[C@@H](C)C(=O)N[C@H](C)C(=O)N(C)[C@@H](CC(C)C)C(=O)N(C)[C@@H](CC(C)C)C(=O)N(C)[C@@H](C(C)C)C(=O)N1C [Compound 2.18.8] (cyclo(A[dA][NMeL][NMeL][NMeV][MeBmt][Abu][dNMeA][X65]V[NMeL]))"
measurement_type = "CypA Kd"
measurement = 0.9

[[record]]
compound = "C/C=C/C[C@@H](C)[C@@H](O)[C@H]1C(=O)N[C@@H](CC)C(=O)N(C)[C@H](C)C(=O)N(C)[C@@H]([C@H](C)CCCN2CCC(OC)CC2)C(=O)N[C@@H](C(C)C)C(=O)N(C)[C@@H](CC(C)C)C(=O)N[C@@H](C)C(=O)N[C@H](C)C(=O)N(C)[C@@H](CC(C)C)C(=O)N(C)[C@@H](CC(C)C)C(=O)N(C)[C@@H](C(C)C)C(=O)N1C (stereo in doubt) [Compound 2.19.5]"
measurement_type = "CypA Kd"
measurement = 0.7

[[record]]
compound = "C/C=C/C[C@@H](C)[C@@H](O)[C@H]1C(=O)N[C@@H](CC)C(=O)N(C)[C@H](C)C(=O)N(C)[C@@H]([C@H](C)CN2CCn3c(nnc3C(F)(F)F)C2)C(=O)N[C@@H](C(C)C)C(=O)N(C)[C@@H](CC(C)C)C(=O)N[C@@H](C)C(=O)N[C@H](C)C(=O)N(C)[C@@H](CC(C)C)C(=O)N(C)[C@@H](CC(C)C)C(=O)N(C)[C@@H](C(C)C)C(=O)N1C [Compound 2.5.19] (cyclo(A[dA][NMeL][NMeL][NMeV][MeBmt][Abu][dNMeA][X26]V[NMeL]))"
measurement_type = "CypA Kd"
measurement = 2.8

[[record]]
compound = "C/C=C/C[C@@H](C)[C@@H](O)[C@H]1C(=O)N[C@@H](CC)C(=O)N(C)[C@H](C)C(=O)N(C)[C@@H]([C@H](C)COC(=O)N2CCOCC2)C(=O)N[C@@H](C(C)C)C(=O)N(C)[C@@H](CC(C)C)C(=O)N[C@@H](C)C(=O)N[C@H](C)C(=O)N(C)[C@@H](CC(C)C)C(=O)N(C)[C@@H](CC(C)C)C(=O)N(C)[C@@H](C(C)C)C(=O)N1C [Compound 2.5.7] (cyclo([MeBmt][Abu][dNMeA][X34]V[NMeL]A[dA][NMeL][NMeL][NMeV]))"
measurement_type = "CypA Kd"
measurement = 2.1

[[record]]
compound = "C/C=C/C[C@@H](C)[C@@H](O)[C@H]1C(=O)N[C@@H](CC)C(=O)N(C)[C@H](C)C(=O)N(C)[C@@H]([C@H](C)CN2CCC3(CC2)OCCO3)C(=O)N[C@@H](C(C)C)C(=O)N(C)[C@@H](CC(C)C)C(=O)N[C@@H](C)C(=O)N[C@H](C)C(=O)N(C)[C@@H](CC(C)C)C(=O)N(C)[C@@H](CC(C)C)C(=O)N(C)[C@@H](C(C)C)C(=O)N1C [Compound 2.5.28] (cyclo(A[dA][NMeL][NMeL][NMeV][MeBmt][Abu][dNMeA][X35]V[NMeL]))"
measurement_type = "CypA Kd"
measurement = 1.4

[[record]]
compound = "C/C=C/C[C@@H](C)[C@@H](O)[C@H]1C(=O)N[C@@H](CC)C(=O)N(C)[C@H](C)C(=O)N(C)[C@@H]([C@H](C)CN(C)CCOC)C(=O)N[C@@H](C(C)C)C(=O)N(C)[C@@H](CC(C)C)C(=O)N[C@@H](C)C(=O)N[C@H](C)C(=O)N(C)[C@@H](CC(C)C)C(=O)N(C)[C@@H](CC(C)C)C(=O)N(C)[C@@H](C(C)C)C(=O)N1C [Compound 2.5.22] (cyclo(A[dA][NMeL][NMeL][NMeV][MeBmt][Abu][dNMeA][X43]V[NMeL]))"
measurement_type = "CypA Kd"
measurement = 1.7

[[record]]
compound = "CCCC[C@@H](C)[C@@H](O)[C@H]1C(=O)N[C@@H](CC)C(=O)N(C)[C@H](C)C(=O)N(C)[C@@H]([C@H](C)CN2CCN(C3CCC3)CC2)C(=O)N[C@@H](C(C)C)C(=O)N(C)[C@@H](CC(C)C)C(=O)N[C@@H](C)C(=O)N[C@H](C)C(=O)N(C)[C@@H](CC(C)C)C(=O)N(C)[C@@H](CC(C)C)C(=O)N(C)[C@@H](C(C)C)C(=O)N1C [Compound 2.5.15] (cyclo([NMe(dihydroBmt)][Abu][dNMeA][X22]V[NMeL]A[dA][NMeL][NMeL][NMeV]))"
measurement_type = "CypA Kd"
measurement = 1.4

[[record]]
compound = "C/C=C/C[C@@H](C)[C@@H](O)[C@H]1C(=O)N[C@@H](CC)C(=O)N(C)[C@H](C)C(=O)N(C)[C@@H]([C@H](C)COCC(C)(C)O)C(=O)N[C@@H](C(C)C)C(=O)N(C)[C@@H](CC(C)C)C(=O)N[C@@H](C)C(=O)N[C@H](C)C(=O)N(C)[C@@H](CC(C)C)C(=O)N(C)[C@@H](CC(C)C)C(=O)N(C)[C@@H](C(C)C)C(=O)N1C [Compound 2.7] (cyclo(A[dA][NMeL][NMeL][NMeV][MeBmt][Abu][dNMeA][X17]V[NMeL]))"
measurement_type = "CypA Kd"
measurement = 2.5

[[record]]
compound = "C/C=C/C[C@@H](C)[C@@H](O)[C@H]1C(=O)N[C@@H](CC)C(=O)N(C)[C@H](C)C(=O)N(C)[C@@H]([C@H](C)CCCN2CC3CCC(C2)N3C)C(=O)N[C@@H](C(C)C)C(=O)N(C)[C@@H](CC(C)C)C(=O)N[C@@H](C)C(=O)N[C@H](C)C(=O)N(C)[C@@H](CC(C)C)C(=O)N(C)[C@@H](CC(C)C)C(=O)N(C)[C@@H](C(C)C)C(=O)N1C [Compound 2.19.3] (cyclo(A[dA][NMeL][NMeL][NMeV][MeBmt][Abu][dNMeA][X60]V[NMeL]))"
measurement_type = "CypA Kd"
measurement = 0.8

